Reported SPOT peptide array binding signal intensity values follow for various binders
Molecular target: AgCyk3
Assay: SPOT peptide array binding signal intensity (averaged, normalized) (arbitrary units (background-subtracted, floor 0; scale differs between SH3 domains)); higher = stronger binding of the SH3 domain to the peptide
reported-endpoint: SPOT peptide array binding signal intensity

- binder: "YSRKKLPVVLSKMTL"
  value-operator: "="
  value-observed: 3
- binder: "HAPPLPPTAPPPPSL"
  value-operator: "≤"
  value-observed: 0
- binder: "LRWRHKFFLPAIAAI"
  value-operator: "="
  value-observed: 0.5
- binder: "VPPPMQPPPIESSNL"
  value-operator: "="
  value-observed: 0.5
- binder: "QPPLPSSAPPIPTSH"
  value-operator: "≤"
  value-observed: 0
- binder: "VDFTLPPPPPPPGLD"
  value-operator: "≤"
  value-observed: 0
- binder: "DKKTKPTPPPKPSHL"
  value-operator: "="
  value-observed: 1
